test system: Escherichia coli TOP10; assay: shrunken log2 fold change of peptide-encoding DNA abundance (4.5 h post-induction vs induction); higher = less antimicrobial activity (less host growth inhibition); settings: time post-induction: 4.5 h; library: site-saturation at positions 5, 18, 19, 20
Note: every record was labeled by where its shrunken log2 fold change sits among category 1 (below -0.07), category 2 (-0.07 to below 0.07), category 3 (0.07 or more)

# ITEM SEQUENCE, ASSIGNED CATEGORY
data = [
    ("RRIRARPPRLPRPRPRPLSGPRP", "category 3"),
    ("RRIRHRPPRLPRPRPRPQVHPRP", "category 1"),
    ("RRIRPRPPRLPRPRPRPPSSPRP", "category 1"),
    ("RRIRLRPPRLPRPRPRPTHSPRP", "category 3"),
    ("RRIRKRPPRLPRPRPRPCYWPRP", "category 2"),
    ("RRIRGRPPRLPRPRPRPMPAPRP", "category 3"),
]

QUERY: Hey, which category is RRIRFRPPRLPRPRPRPDRNPRP in, do you know?
RESULT: category 1

QUERY: Form: Item = RRIRRRPPRLPRPRPRPWQLPRP ; Class = ?
RESULT: category 3

QUERY: For RRIRGRPPRLPRPRPRPHWSPRP , which shrunken log2 fold change bin applies?
RESULT: category 1

QUERY: Class (by measured shrunken log2 fold change) for RRIRYRPPRLPRPRPRPDTMPRP
RESULT: category 2

QUERY: Lab log: RRIRVRPPRLPRPRPRPDTFPRP — assign shrunken log2 fold change category
RESULT: category 1

QUERY: For RRIRERPPRLPRPRPRPAVCPRP , which shrunken log2 fold change bin applies?
RESULT: category 3

====

List of shrunken log2 fold change values.
tested on: Escherichia coli TOP10; assay: shrunken log2 fold change of peptide-encoding DNA abundance (4.5 h post-induction vs induction); higher = less antimicrobial activity (less host growth inhibition); conditions: time post-induction: 4.5 h; library: site-saturation at positions 5, 18, 19, 20
Number only, no unit.

# ITEM SEQUENCE, RESULT
rows = [
    ("RRIRARPPRLPRPRPRPDQWPRP", 0.493),
]

QUERY: Tell us which shrunken log2 fold change value is on record for RRIRSRPPRLPRPRPRPFYLPRP
RESULT: -0.818

QUERY: # return recorded shrunken log2 fold change for input RRIRYRPPRLPRPRPRPNNIPRP
RESULT: -1.24

QUERY: Specify measured shrunken log2 fold change for RRIRERPPRLPRPRPRPGQLPRP .
RESULT: -0.131

QUERY: Identify shrunken log2 fold change associated with the sequence RRIRIRPPRLPRPRPRPINNPRP
RESULT: -0.751

QUERY: For the sequence RRIRMRPPRLPRPRPRPKGLPRP , give its measured shrunken log2 fold change value.
RESULT: -0.0628

QUERY: # return recorded shrunken log2 fold change for entry RRIRMRPPRLPRPRPRPRPKPRP
RESULT: 1.07

QUERY: Look up and state reported shrunken log2 fold change for RRIRRRPPRLPRPRPRPASHPRP
RESULT: 0.4

====

test system: Escherichia coli TOP10; experiment: shrunken log2 fold change of peptide-encoding DNA abundance (4.5 h post-induction vs induction); higher = less antimicrobial activity (less host growth inhibition); conditions: time post-induction: 4.5 h; library: site-saturation at positions 5, 18, 19, 20
READOUT: shrunken log2 fold change
// return a plain number; no unit text

# ITEM SEQUENCE, READOUT, RESULT
rows = [
    ("RRIRGRPPRLPRPRPRPDKRPRP", "shrunken log2 fold change", 0.767),
    ("RRIRFRPPRLPRPRPRPWHTPRP", "shrunken log2 fold change", -0.0673),
    ("RRIRRRPPRLPRPRPRPVMIPRP", "shrunken log2 fold change", 0.224),
    ("RRIRDRPPRLPRPRPRPDEQPRP", "shrunken log2 fold change", 0.0528),
    ("RRIRWRPPRLPRPRPRPSMVPRP", "shrunken log2 fold change", -0.129),
    ("RRIRTRPPRLPRPRPRPHKSPRP", "shrunken log2 fold change", 0.119),
    ("RRIRDRPPRLPRPRPRPGFCPRP", "shrunken log2 fold change", 0.567),
    ("RRIRSRPPRLPRPRPRPHTTPRP", "shrunken log2 fold change", -0.0736),
    ("RRIRQRPPRLPRPRPRPMMLPRP", "shrunken log2 fold change", 0.052),
    ("RRIRWRPPRLPRPRPRPECWPRP", "shrunken log2 fold change", 1.29),
]

QUERY: Specify shrunken log2 fold change for RRIRSRPPRLPRPRPRPKLYPRP and stop.
RESULT: -0.199

QUERY: Check the records and state shrunken log2 fold change for RRIRDRPPRLPRPRPRPVMLPRP
RESULT: -0.0376

====

test system: Escherichia coli TOP10; test: shrunken log2 fold change of peptide-encoding DNA abundance (4.5 h post-induction vs induction); higher = less antimicrobial activity (less host growth inhibition); conditions: time post-induction: 4.5 h; library: site-saturation at positions 5, 18, 19, 20
Classification field: enter satisfied for shrunken log2 fold change values not below -0.2, not satisfied for values below it.

# ITEM SEQUENCE, ASSIGNED CATEGORY
data = [
    ("RRIRNRPPRLPRPRPRPATIPRP", "not satisfied"),
    ("RRIRLRPPRLPRPRPRPKGHPRP", "satisfied"),
    ("RRIRYRPPRLPRPRPRPFAHPRP", "satisfied"),
    ("RRIRIRPPRLPRPRPRPCQHPRP", "satisfied"),
    ("RRIRMRPPRLPRPRPRPLIKPRP", "satisfied"),
]

QUERY: Given RRIRERPPRLPRPRPRPFWGPRP , state whether its shrunken log2 fold change is at least -0.2.
RESULT: satisfied

QUERY: Answer whether shrunken log2 fold change of RRIRIRPPRLPRPRPRPLFNPRP is greater than or equal to -0.2.
RESULT: not satisfied

QUERY: Answer whether shrunken log2 fold change of RRIRTRPPRLPRPRPRPSYDPRP is greater than or equal to -0.2.
RESULT: not satisfied

====

system: Escherichia coli TOP10; assay: shrunken log2 fold change of peptide-encoding DNA abundance (4.5 h post-induction vs induction); higher = less antimicrobial activity (less host growth inhibition); conditions: time post-induction: 4.5 h; library: site-saturation at positions 5, 18, 19, 20
# class assignment by measured shrunken log2 fold change: bottom bin = under -0.1, middle bin = from -0.1 up to 0.1, top bin = 0.1 and over

QUERY: // bin(item) where item = RRIRKRPPRLPRPRPRPMTAPRP
RESULT: top bin

====

tested on: Escherichia coli TOP10; experiment: shrunken log2 fold change of peptide-encoding DNA abundance (4.5 h post-induction vs induction); higher = less antimicrobial activity (less host growth inhibition); conditions: time post-induction: 4.5 h; library: site-saturation at positions 5, 18, 19, 20
Cut-off 0.004 on shrunken log2 fold change, inclusive. At or above means Fulfilled; below means Not fulfilled.

Study these solved cases before continuing.
# ITEM SEQUENCE, ASSIGNED CATEGORY
records = [
    ("RRIRHRPPRLPRPRPRPLHEPRP", "Fulfilled"),
    ("RRIRYRPPRLPRPRPRPVDGPRP", "Not fulfilled"),
    ("RRIRMRPPRLPRPRPRPTVTPRP", "Fulfilled"),
    ("RRIRQRPPRLPRPRPRPWVMPRP", "Not fulfilled"),
    ("RRIRVRPPRLPRPRPRPGPGPRP", "Fulfilled"),
]

QUERY: Check the entry RRIRKRPPRLPRPRPRPTQPPRP : does shrunken log2 fold change equal or exceed 0.004?
RESULT: Fulfilled

QUERY: Threshold query (shrunken log2 fold change >= 0.004) on RRIRNRPPRLPRPRPRPAAAPRP
RESULT: Fulfilled

QUERY: Reported shrunken log2 fold change reaches at least 0.004 for RRIRSRPPRLPRPRPRPTICPRP ?
RESULT: Not fulfilled

====

shrunken log2 fold change for assorted sequences
tested on: Escherichia coli TOP10; assay: shrunken log2 fold change of peptide-encoding DNA abundance (4.5 h post-induction vs induction); higher = less antimicrobial activity (less host growth inhibition); conditions: time post-induction: 4.5 h; library: site-saturation at positions 5, 18, 19, 20;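 further: peptides expressed intracellularly from a pBAD plasmid library in pooled LB shake-flask culture, induced with 0.3% L-arabinose, DNA abundance read by NGS, three biological replicates, DESeq2 with apeglm shrinkage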
Response field accepts a number only; no unit should be typed.

Solved entries (count: 6):
# ITEM SEQUENCE, MEASURED TARGET, shrunken log2 fold change
data = [
    ("RRIRFRPPRLPRPRPRPYETPRP", "Escherichia coli TOP10", -0.185),
    ("RRIRKRPPRLPRPRPRPSVWPRP", "Escherichia coli TOP10", 0.645),
    ("RRIRARPPRLPRPRPRPWYFPRP", "Escherichia coli TOP10", -0.332),
    ("RRIRYRPPRLPRPRPRPYWTPRP", "Escherichia coli TOP10", -0.00804),
    ("RRIRKRPPRLPRPRPRPINTPRP", "Escherichia coli TOP10", -0.0237),
    ("RRIRNRPPRLPRPRPRPTDLPRP", "Escherichia coli TOP10", -0.228),
]

QUERY: Give a short answer stating reported shrunken log2 fold change for RRIRFRPPRLPRPRPRPSVNPRP .
RESULT: -0.388

QUERY: Input RRIRSRPPRLPRPRPRPVANPRP , output reported shrunken log2 fold change.
RESULT: 0.152

QUERY: Determine its reported shrunken log2 fold change: RRIRGRPPRLPRPRPRPDFKPRP
RESULT: 0.386

QUERY: Give the value of shrunken log2 fold change reported for the following: RRIRGRPPRLPRPRPRPWEVPRP
RESULT: 0.0273

QUERY: Let me know recorded shrunken log2 fold change for RRIRPRPPRLPRPRPRPQPLPRP , thanks.
RESULT: 0.16

QUERY: Find the measured shrunken log2 fold change of RRIRARPPRLPRPRPRPFNDPRP and report it.
RESULT: -0.147

QUERY: Using known records, supply shrunken log2 fold change for RRIRPRPPRLPRPRPRPCNLPRP
RESULT: -0.593

QUERY: Name the recorded shrunken log2 fold change of the sequence listed here: RRIRSRPPRLPRPRPRPYEMPRP
RESULT: -0.234

QUERY: Given RRIRCRPPRLPRPRPRPSNGPRP , respond with its shrunken log2 fold change.
RESULT: -0.113

QUERY: Return shrunken log2 fold change (reported value) for this sequence: RRIRLRPPRLPRPRPRPGFNPRP
RESULT: -0.0341

QUERY: Note down shrunken log2 fold change recorded for RRIRPRPPRLPRPRPRPWQTPRP
RESULT: -0.0715

QUERY: Name the recorded shrunken log2 fold change of the sequence listed here: RRIRTRPPRLPRPRPRPHQDPRP
RESULT: -0.245

QUERY: Please look at this sequence and report its shrunken log2 fold change: RRIRNRPPRLPRPRPRPTADPRP
RESULT: 0.422

QUERY: Give the value of shrunken log2 fold change reported for the following: RRIRGRPPRLPRPRPRPSCNPRP
RESULT: 0.588
